# Tested on: OVCAR-4 ovarian
# PROTOCOL_DESCRIPTION: NCI-60 one-dose screen, 48 h
# ASSAY_CONTEXT: 10 µM unless noted
About 83,000 compounds went through this panel and 20% of them were active in at least one assay; those are over-represented in the sample as a whole. Activity calls are given as the source filed them. Rule for the calls: active = growth percent below 10; inactive = the rest.
Possible outcomes: active, inactive

> print(dat)
                                    compound     group
 1  O=C1/C(=C/c2cccc([N+](=O)[O-])c2)COc2ccc(O)c(O)c21  inactive
 2  COc1cc2c(c(OC)c1OC)CCC(c1cccc(C(=O)Nc3ccc([N+](=O)[O-])cc3)c1)O2 (stereo unspecified)  inactive
 3  C#CCOc1cc(/C=N/Nc2nc(-c3ccc(OC)cc3)cs2)ccc1O  inactive
 4  N#CC1=C(N)Oc2c(ccc3cccnc23)C1c1ccccc1 (stereo unspecified)  inactive
 5     O=C1/C(=C/c2ccc(Br)cc2)COc2ccc(O)cc21  inactive
 6              CSc1nc(CC(C)C)c(C#N)c(=O)n1C  inactive
 7  COc1ccc(-c2cc(-c3ccc(Nc4nc(Nc5ccc(Cl)cc5)nc(Nc5ccc(Cl)cc5)n4)cc3)no2)cc1  inactive
 8  CCCn1cnc2c(c1=N)C(c1ccc(Cl)cc1)c1sc3c(F)cccc3c1O2 (stereo unspecified)  inactive
 9  NC(=N\N=C/c1ccc(Cl)cc1Cl)/C(N)=N\N=C/c1ccc(Cl)cc1Cl    active
10   Cc1ccc(S(=O)(=O)N(CCC(=O)O)c2ccccc2)cc1  inactive
11  O=S(=O)(Nc1ccc(Br)cc1)c1ccc(-c2cnc(C3CC3)o2)cc1  inactive
12  O=C(/C=C/c1cccc([N+](=O)[O-])c1)c1ccc(Nc2nc(Nc3ccc(F)cc3)nc(Nc3ccc(Cl)cc3)n2)cc1  inactive
13      COc1cccc2cc(N(C)c3ncnc4ccccc34)ccc12  inactive
14        Oc1c(Cl)cc(Cl)c2ccc(CN3CCNCC3)nc12  inactive
15  CCN1C(=O)N(CC)C2C1NN=c1s/c(=C\c3ccccc3)c(=O)n12 (stereo unspecified)  inactive
16  CC/C(=C(/c1ccc(Cl)cc1)c1ccc(OCCN2CCCCCC2)cc1)c1ccccc1  inactive
17     Cc1ccccc1NC(=O)c1sc2nc3c(cc2c1N)CCCC3  inactive
18  C=CC(=O)NCc1cccc(Nc2ncc(Br)c(NCCCNC(=O)C3CCC3)n2)c1    active
19  COC1CC(O)C2=C(CC3C(/C(C)=C\CC=C(C)C)CCC3(C)O2)C1=O (stereo unspecified)  inactive
20  FC(F)(F)c1cc(N2CCCCC2)nc(NCCCNc2ccnc3cc(Cl)ccc23)n1  inactive
21  Clc1ccc(C2=Nn3c(nnc3-c3cc(Cl)cc(Cl)c3Cl)SC2)cc1  inactive

* * *

# Test system: RPMI-8226 leukemia
# PROTOCOL_DESCRIPTION: NCI-60 one-dose screen, 48 h
# ASSAY_CONTEXT: 10 µM unless noted
The panel holds about 83,000 compounds, 20% with a hit somewhere; the sample as a whole holds those more often. Calls of active or inactive are those of the source. Rule for the calls: active = growth percent below 10; inactive = the rest.
Possible outcomes: active, inactive

COMPOUND	GROUP
NCCCCCNc1noc(Cc2c[nH]c3cc(Br)ccc23)n1	active
CC(C)=CCC[C@](C)(O)C1CC[C@]2(C)[C@@H]1CC[C@@H]1[C@@]3(C)CC/C(=N\OCCC#N)C(C)(C)[C@@H]3CC[C@]12C (stereo not given in full)	inactive
Cn1ccnc1C(=O)/C=C/c1ccc(C(=O)Nc2c(F)c(F)c(F)c(F)c2F)cc1	active
CN(C)c1ccc(/C=N/NC(=O)CSc2nc3sc4c(c3c(=O)n2-c2ccccc2)CCCCC4)cc1	inactive
COC(CCP(=O)(c1ccccc1)c1ccccc1)(C(=O)c1ccccc1)c1ccccc1 (stereo not given)	active
